Where do these numbers come from? They come from ChEMBL document CHEMBL3045297.

Test system: Pyricularia grisea
Assay: Antifungal activity against Magnaporthe grisea infected finger millet seed assessed as fungal occurrence at 1 g/L after 1 week by stereoscopic analysis (reference value: 12.5 +/- 0.35%)
Type: functional
observable: Activity (%)

{"compound": "O=C(c1cccc(Cl)c1)c1cc(Cl)ccc1OCc1nnc(N2C(=O)C(Cl)C2c2cccc(Br)c2)o1 (stereo unspecified)", "measured-on": "Pyricularia grisea", "unit-info": "%", "observed-result": 2}
{"compound": "O=C(c1ccccc1)c1ccc(Br)cc1OCc1nnc(N2C(=O)C(Cl)C2c2cccc(Br)c2)o1 (stereo unspecified)", "measured-on": "Pyricularia grisea", "unit-info": "%", "observed-result": 4}
{"compound": "COc1ccc(C(=O)c2cc(C)ccc2OCc2nnc(N3C(=O)C(Cl)C3c3cccc(Br)c3)o2)cc1 (stereo unspecified)", "measured-on": "Pyricularia grisea", "unit-info": "%", "observed-result": 3.5}
{"compound": "COC(=O)Nc1nc2ccccc2[nH]1 [CARBENDAZIM]", "measured-on": "Pyricularia grisea", "unit-info": "%", "observed-result": 1.5}
{"compound": "O=C(c1ccccc1)c1cc(Cl)ccc1OCc1nnc(N2C(=O)C(Cl)C2c2cccc(Br)c2)o1 (stereo unspecified)", "measured-on": "Pyricularia grisea", "unit-info": "%", "observed-result": 6}
{"compound": "Cc1ccc(OCc2nnc(N3C(=O)C(Cl)C3c3cccc(Br)c3)o2)c(C(=O)c2ccccc2Cl)c1 (stereo unspecified)", "measured-on": "Pyricularia grisea", "unit-info": "%", "observed-result": 3.5}
{"compound": "Cc1ccc(OCc2nnc(N3C(=O)C(Cl)C3c3cccc(Br)c3)o2)c(C(=O)c2ccccc2)c1 (stereo unspecified)", "measured-on": "Pyricularia grisea", "unit-info": "%", "observed-result": 12}
{"compound": "Cc1ccc(OCc2nnc(N3C(=O)C(Cl)C3c3cccc(Br)c3)o2)c(C(=O)c2ccc(Cl)cc2)c1 (stereo unspecified)", "measured-on": "Pyricularia grisea", "unit-info": "%", "observed-result": 4}
{"compound": "Cc1ccc(OCc2nnc(N3C(=O)C(Cl)C3c3cccc(Br)c3)o2)c(C(=O)c2cccc(Cl)c2)c1 (stereo unspecified)", "measured-on": "Pyricularia grisea", "unit-info": "%", "observed-result": 5}
{"compound": "Cc1cc(OCc2nnc(N3C(=O)C(Cl)C3c3cccc(Br)c3)o2)c(C(=O)c2ccccc2)cc1Cl (stereo unspecified)", "measured-on": "Pyricularia grisea", "unit-info": "%", "observed-result": 3}
{"compound": "Cc1ccc(C(=O)c2cc(C)ccc2OCc2nnc(N3C(=O)C(Cl)C3c3cccc(Br)c3)o2)cc1 (stereo unspecified)", "measured-on": "Pyricularia grisea", "unit-info": "%", "observed-result": 4}
